// data source = PubChem BioAssay

Below, each entry is listed alongside its reported composite z-score.
Target Entity: Calmodulin-1 (Homo sapiens)
Assay Details: CALM1 binders on microarrays, EGTA buffer, profiling panel, biochemical, small-molecule microarray, Cy5-labelled CALM1 (AID 1111);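 further: labelled calmodulin applied in Tris saline Tween buffer holding calcium plus EGTA and DTT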
Setup Conditions: Cy5-CALM1 binding fluorescence, higher = more signal
Property: composite z-score

Compound	Numeric Result
[N-]=[N+]=NCc1ccccc1[C@H]1OC(c2ccc(OCCCO)cc2)=N[C@@]1(Cc1ccccc1)C(=O)N1CCOCC1	1.48
CC(C)(C)OC(=O)CC[C@]1(C(=O)N2CCOCC2)N=C(c2ccc(OCCCO)cc2)O[C@H]1c1ccccc1CN=[N+]=[N-]	1.27
O=C1C2C=CC(C(O)c3ccc([N+](=O)[O-])cc3)N(Nc3ccccc3)C2C(=O)N1c1ccccc1 (stereo not drawn)	0.0871
CN(C)CCCCNC(=O)[C@H]1C[C@H]2C(=O)NCC(=O)N2[C@H]1c1cccc(OCCO)c1	0.0097
Cc1ccc(F)cc1S(=O)(=O)N[C@@H]1CCN(Cc2ccc3c(c2)OCO3)C1	-0.786
O=C1OCCC=C[C@H]2OC34C=CCN(CCN5CCOCC5)C(=O)[C@H]3N(CCCO)C(=O)[C@@H]4C12 (stereo partly drawn)	-0.572
CCCC[C@@H](O)C1=C(COC)Cn2c(=O)n(-c3ccccc3)c(=O)n2[C@H]1CO	-0.97
COCCOC(=O)N1C(=O)[C@@]2(c3cc(C#Cc4ccc(OC)cc4)ccc31)[C@H](C(=O)Nc1nc3ccccc3s1)[C@H]1C(=O)O[C@H](c3ccccc3)[C@H](c3ccccc3)N1[C@@H]2c1ccccc1OCCO	1.5
CCOC(=O)C1=CC[C@@H](c2ccccc2)N(S(=O)(=O)C[Si](C)(C)C)[C@H]1c1ccccc1	1.36
COC(=O)[C@@]1(Cc2ccc(OC)cc2)[C@H]2c3cc(C(=O)N4CCCC4)n(CCc4ccc(OC)c(Br)c4)c3C[C@H]2CN1C(=O)c1ccccc1	2.19
C[C@H]1NC(=O)C([C@@H](C)OCc2ccccc2)NC(=O)[C@@]23C(=O)N[C@@H](Cc4ccccc4)C2[C@H](C)[C@@]2(C)O[C@H]2C3/C=C/C/C=C\CNC1=O (stereo partly drawn)	-0.553
NC(=O)[C@@]1(CCS(=O)(=O)c2ccccc2)COC(c2ccc(OCCCO)cc2)=N1	1.12
COC(=O)[C@@]1(Cc2ccccc2CN=[N+]=[N-])COC(c2ccc(OCCCO)cc2)=N1	-0.759

====

Below, each entry is listed alongside its reported z-score.
Assay Details: adipocyte viability effects, profiling panel, cell-based, 3T3-L1 adipocytes, calcein-AM fluorescence, 48 h, basal (AID 1163); further: test concentration not given here
Setup Conditions: 3T3-L1 adipocytes viability, higher = more signal

Molecule	z-score
O=C1NC(=O)C2C1C=CC(C(O)c1cccc(O)c1)N2Nc1ccc(Cl)cc1Cl (centres undefined)	-0.648
Cc1c(NC(=O)/C(C#N)=C/c2ccc(Cl)cc2)c(=O)n(-c2ccccc2)n1C	0.22
COCCOC(=O)N1C(=O)[C@@]2(c3cc(C#CC4(O)CCCCCC4)ccc31)[C@H](C(=O)N1CCc3cc(OC)c(OC)cc3C1)[C@H]1C(=O)O[C@H](c3ccccc3)[C@H](c3ccccc3)N1[C@@H]2c1ccc(O)cc1	1.29
C=CCC(OC(C)=O)[C@@H]1[C@@H](N(Cc2cc3ccccc3o2)C(=O)Cc2ccc(OC)cc2)c2cc(OCCCO)ccc2N1C(=O)Cc1ccc2ccccc2c1 (some centres undefined)	0.592
[N-]=[N+]=NCc1ccccc1C[C@]1(C(=O)NCc2ccccc2)N=C(c2ccc(OCCCO)cc2)O[C@H]1c1ccccc1CN=[N+]=[N-]	2.15
C=CC[C@@]12N=C(c3ccc(OCCCO)cc3)O[C@@H]1c1ccccc1N(Cc1ccccc1)C2=O	0.555
[N-]=[N+]=Nc1ccccc1[C@@H]1OC(c2ccc(OCCCO)cc2)=N[C@]1(Cc1ccccc1)C(N)=O	-0.186
Cc1ccc(S[C@]2(C(=O)NCCCN(C)C)CC(=O)N(Cc3ccccc3Cl)[C@@H]2c2ccc(CO)cc2I)cc1	0.908
COc1ccc([Si](C)(C)[C@H]2[C@H](CC(=O)N3Cc4ccccc4C[C@H]3CO)O[C@@]3(C(=O)N(Cc4cccc(N5C(=O)c6cccc7cccc5c67)c4)c4ccccc43)[C@@H]2C)cc1	0.986
C=CCC(OC(C)=O)[C@@H]1[C@@H](N(Cc2cccc3ccccc23)C(=O)c2ccc(C)cc2)c2cc(OCCCO)ccc2N1C(=O)c1ccc2ccccc2n1 (some centres undefined)	0.694
C=CC[C@]1(C(=O)NCCCOC)N=C(c2ccc(OCCCO)cc2)O[C@H]1c1ccccc1	0.301
CCCCNC(=O)c1ccc(C#C[Si](C)(C)C)c(OC(C)=O)c1	0.477
CC(C)C[C@@H]1NC(=O)[C@@]23C(=O)N[C@@H](Cc4ccccc4)C2[C@H](C)[C@@]2(C)O[C@H]2C3/C=C/C/C=C\CNC(=O)[C@@H](CC(C)C)NC1=O (some centres undefined)	0.703
CN(C)CCCC[C@@H]1NC(=O)[C@H]2C[C@@H](C(=O)O)[C@@H](c3cccc(OCCO)c3)N2C1=O	0.174
